Catalogue of viability values
assay: HUVEC growth inhibition – cell-based, human, primary screen (AID 575); details: HUVEC proliferation, CellTiter-Glo luminescence, 72 h; at 10 µM; hits give low values;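 also: 100% = median of untreated cell wells with 0.1% DMSO on each plate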

Molecule | Uom | viability
O=C(Oc1ccc2c(c1)CCC2)N1CCOCC1 | % | 99.9
O=S(=O)(c1ccc(Br)s1)N1CCCCC1 | % | 89.5
C=CCn1c(=O)/c(=C/c2ccc(O)cc2)s/c1=C(/C#N)c1nnc2n1CCCCC2 | % | 83.4
CC(C)=CCCC(C)CN(C)CCc1ccccn1 (stereo unspecified) | % | 101
COc1ccccc1Nc1nc2ccccc2[nH]1 | % | 86.3
CCOC(=O)/C=C1\SCC(=O)N1Cc1ccc(Br)cc1 | % | 79.5
